Would you mind telling me the reported IC50 of each entry?
# Assayed System: eDHFR (Escherichia coli, UniProt P0ABQ4);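 note: purified E. coli DHFR colorimetric assay, enzyme with NADPH 3 min then inhibitor (10^-12 to 10^-5 M) 7 min, rate ΔAbs/s relative to DMSO control (1% v/v), triplicates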
# Construct: made in house; host or cells: E. cloni EXPRESS BL21 (DE3) cells (Lucigen), pT7-SC1 plasmid
# Sequence (P0ABQ4 whole entry): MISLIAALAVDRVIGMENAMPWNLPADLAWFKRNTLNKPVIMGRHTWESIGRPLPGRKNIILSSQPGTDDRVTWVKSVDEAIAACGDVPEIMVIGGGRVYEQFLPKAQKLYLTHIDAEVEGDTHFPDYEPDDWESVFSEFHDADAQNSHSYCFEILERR
# Assay Overview: biochemical
# Condition Label: irradiated with λ1 (1: continuous irradiation at 390 nm); read-out: IC50 Light

Query block: Consider the molecule Nc1ncc(C#Cc2ccc(/N=N/c3ccccc3)cc2)c(N)n1 and give its recorded IC50.
Result block: > 10 µM

Query block: Supply measured IC50 of Nc1ncc(/N=N/c2ccccc2)c(N)n1 in your reply.
Result block: > 10 µM

Query block: Retrieve IC50 measured for Nc1ncc(-c2ccc(/N=N/c3ccccc3)cc2)c(N)n1 and print it.
Result block: > 10 µM
